Just for reference, patent EP1285971B1 is where these values come from.

# Tested on: NL 4-3
# PROCEDURE SUMMARY: microbe, parasite or virus in culture
# Type: cell-based, HIV-1
# CONDITION DETAILS: Human immunodeficiency virus 1, NL43, AVE 4, NL4-3, primer set 4
# Text: The integrase encoding sequence was amplified from either wildtype HIV-1 (IIIB) or NL4.3 virus, or HXB2D site-directed mutant viruses containing mutations in integrase (such as T66I, S153Y, M154I, or combinations thereof) (Hazuda et al., Science 2000, 287, 646-650), or patient samples. […]
Listing of entries alongside the reported EC50.
Respond numerically; units are nM and should not be typed.

COMPOUND	TEST TARGET	ENDPOINT UNIT	QUANTITATIVE READOUT
CC(C)CN(C[C@@H](O)[C@H](Cc1ccccc1)NC(=O)O[C@H]1CCOC1)S(=O)(=O)c1ccc(N)cc1 [APV, Amprenavir]	NL 4-3	nM	113
Cc1cn([C@H]2C[C@H](N=[N+]=[N-])[C@@H](CO)O2)c(=O)[nH]c1=O [AZT, Zidovudine]	NL 4-3	nM	182
CC(C)(C)NC(=O)[C@@H]1CN(Cc2cccnc2)CCN1C[C@@H](O)C[C@@H](Cc1ccccc1)C(=O)N[C@H]1c2ccccc2C[C@H]1O [IDV, Indinavir]	NL 4-3	nM	50.7
CC(C)(C)NC(=O)[C@@H]1C[C@@H]2CCCC[C@@H]2CN1C[C@@H](O)[C@H](Cc1ccccc1)NC(=O)[C@H](CC(N)=O)NC(=O)c1ccc2ccccc2n1 [SQV, Saquinavir]	NL 4-3	nM	38.5
Nc1ccn([C@@H]2CS[C@H](CO)O2)c(=O)n1 [Compound 3TC, Lamivudine]	NL 4-3	nM	2730

We next turn to a different compound, shown below.
Enquiry: Give EC50 (NL 4-3) of the following compound: c1cc(CN2CCCNCCNCCCNCC2)ccc1CN1CCCNCCNCCCNCC1 [AMD3100]
Return: 63

###

# Test system: WT III B
# PROCEDURE SUMMARY: microbe, parasite or virus in culture
# Type: cell-based, HIV-1
# CONDITION DETAILS: AVE 5, WT III B, primer set 4; fold change in EC50
MEASURED ENDPOINT: fold change

# count of solved cases: 2
> print(dat)
                           structure.smiles  result
1  CC(C)CN(C[C@@H](O)[C@H](Cc1ccccc1)NC(=O)O[C@H]1CCOC1)S(=O)(=O)c1ccc(N)cc1     0,7
2  Cc1cn([C@H]2C[C@H](N=[N+]=[N-])[C@@H](CO)O2)c(=O)[nH]c1=O     0,9

Enquiry: Query the reported fold change for WT III B; item: c1cc(CN2CCCNCCNCCCNCC2)ccc1CN1CCCNCCNCCCNCC1
Return: 0,8

Enquiry: Continue with CC(C)c1nc(CN(C)C(=O)N[C@H](C(=O)N[C@@H](Cc2ccccc2)C[C@H](O)[C@H](Cc2ccccc2)NC(=O)OCc2cncs2)C(C)C)cs1
Return: 1,0

Enquiry: Try this molecule too: CC(C)(C)NC(=O)[C@@H]1C[C@@H]2CCCC[C@@H]2CN1C[C@@H](O)[C@H](Cc1ccccc1)NC(=O)[C@H](CC(N)=O)NC(=O)c1ccc2ccccc2n1
Return: 1,8
